- ASSAYED_TARGET: uPA (Homo sapiens)
- ASSAY_METHOD_TEXT: FRET peptide cleavage efficiency with uPA
- Type: biochemical
- TEST_CONDITIONS: t = 60 min; 200 uM linker, 1 ug/ml protease, 37° C., buffer A pH 8.5
Square brackets hold non-standard residues; d marks the D form. Ends that are not written are not given here. Tyr(3-NO2) = N[C@@H](Cc1ccc(O)c([N+](=O)[O-])c1)C(=O)O; Nle = CCCC[C@H](N)C(=O)O; 2Abz = Nc1ccccc1C(=O)O
Quick list: % cleavage uPA t = 60 min per entry.
MEASURED_PROPERTY: % cleavage uPA t = 60 min (%)

SUBSTANCE | QUANTITATIVE_READOUT
SGRVLRKAGPQPLVD ([2Abz]SGRVLRKAGPQPLVD[Tyr(3-NO2)]-NH2) [LNK003] | 10
RGRRAANLVRPLGYFGKL ([2Abz]RGRRAANLVRPLGYFGKL[Tyr(3-NO2)]-NH2) [LNK060] | 11
RQRRS-Nle-PLGLAG ([2Abz]RQRRS[Nle]PLGLAG[Tyr(3-NO2)]-NH2) [LNK025] | 1
SGRVANPLGGSG ([2Abz]SGRVANPLGGSG[Tyr(3-NO2)]-NH2) [LNK053] | 5
SGRVLPYAMTA ([2Abz]SGRVLPYAMTA[Tyr(3-NO2)]-NH2) [LNK024] | 0
RRLHYSL ([2Abz]RRLHYSL[Tyr(3-NO2)]-NH2) [LNK073] | 0
SGRVLTLRKAALPLAM ([2Abz]SGRVLTLRKAALPLAM[Tyr(3-NO2)]-NH2) [LNK020] | 26
SGRVLPLGMRA ([2Abz]SGRVLPLGMRA[Tyr(3-NO2)]-NH2) [LNK023] | 2
